Tested on: anti-peptide mouse IgG
Assay: Anti-peptide immune response assay (Elisa) on serum of immunized mice
Assay type: in vivo, Male C57BL/6 mice
Settings: column 6; serum dilution 1:10000; read at 450 nm
Where no end group is shown, it is not given here.
reported_endpoint: Elisa Test pep before B16FO given

Completed entries (count: 3):
substance	recorded_value
-D-T-D-D-R-F-G-F- (DTDDRFGF; also: biotinylated, KLH conjugate) [M MP-9 A-2, MMP-9 oligopeptide, biotinylated and conjugated to KLH for immunization]	.261
-C-H-F-P-F-I-F-E-G-R-S-Y-S-A-C- (CHFPFIFEGRSYSAC; cysteine pairing not given here; also: biotinylated, KLH conjugate) [MMP-9 A-1, MMP-9 oligopeptide, biotinylated and conjugated to KLH for immunization]	.274
-D-R-D-K-L-F-G-F-C-P-T-R-A-D-S- (DRDKLFGFCPTRADS; also: biotinylated, KLH conjugate) [MMP-9 A-3, MMP-9 oligopeptide, biotinylated and conjugated to KLH for immunization]	.631

Kindly consider the entry below.
State its Elisa Test pep before B16FO given on anti-peptide mouse IgG: -C-P-R-K-P-K-W-D-K-C- (CPRKPKWDKC; cysteine pairing not given here; also: biotinylated, KLH conjugate) [MMP-2 A-4, MMP-2 oligopeptide, biotinylated and conjugated to KLH for immunization] .257
